- TARGET: Neuropeptide Y receptor type 4 (Homo sapiens, UniProt P50391)
- Sequence (P50391 whole entry): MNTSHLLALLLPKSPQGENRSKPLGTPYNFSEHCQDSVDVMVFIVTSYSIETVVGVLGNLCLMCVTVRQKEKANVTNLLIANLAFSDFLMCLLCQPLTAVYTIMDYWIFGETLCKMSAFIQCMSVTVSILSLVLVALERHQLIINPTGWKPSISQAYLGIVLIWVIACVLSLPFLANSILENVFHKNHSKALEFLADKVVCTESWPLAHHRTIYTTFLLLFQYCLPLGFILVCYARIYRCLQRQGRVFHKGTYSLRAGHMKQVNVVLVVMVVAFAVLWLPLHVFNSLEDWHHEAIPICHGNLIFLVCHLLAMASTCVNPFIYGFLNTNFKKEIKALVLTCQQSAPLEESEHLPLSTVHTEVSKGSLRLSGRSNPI
- ASSAY_NAME: Agonist activity at human neuropeptide Y Y4 receptor expressed in HEK293T-ARRB2 cells assessed as stimulation of beta-arrestin 2 recruitment by multimode plate reader
- Type: functional, cell-based
Starred links: 1 amine or outer side, 2 acyl side, 3 side chain; linkers in the order of their positions; H or OH if unused. Residues, ends and D or L forms follow the SMILES beside them. Groups on a side chain read outwards from the residue. *: point of attachment. Suc = O=C(CCC(=O)[*:2])[*:1]; NH(CH2)4NH2 = NCCCCN*; CO = O=C([*:1])[*:2]; NH(CH2)3NH2 = NCCCN*
READOUT_NAME: pEC50
Please report pEC50 as the negative decimal logarithm of the molar concentration, giving only the number.

Observe how each entry below is paired with its result.
- MOLECULE: "CC(C)C[C@H](NC(=O)[C@H](CCCNC(=N)N)NC(=O)[C@@H]1CCC(=O)N[C@@H](CCCNC(=N)N)C(=O)NCC(=O)N[C@@H](Cc2ccc(O)cc2)C(=O)N1)C(=O)N[C@@H](CCCNC(=N)N)C(=O)N[C@@H](Cc1ccc(O)cc1)C(N)=O (HELM PEPTIDE1{R.G.Y.E.R.L.R.Y.[am]}$PEPTIDE1,PEPTIDE1,1:R1-4:R3$$$V2.0)"
  TARGET: "Neuropeptide Y receptor type 4 (Homo sapiens, UniProt P50391)"
  pEC50: 6.75
- MOLECULE: "N=C(N)NCCC[C@H](NC(=O)CCC(=O)O)C(=O)N[C@@H](Cc1ccc(O)cc1)C(=O)N[C@@H](CCCNC(=N)NC(=O)NCCCN)C(=O)N[C@@H](Cc1c[nH]c2ccccc12)C(=O)N[C@@H](CCCNC(=N)N)C(=O)N[C@@H](Cc1ccc(O)cc1)C(N)=O (Suc-RYR([CO-NH(CH2)3NH2])WRY-NH2)"
  TARGET: "Neuropeptide Y receptor type 4 (Homo sapiens, UniProt P50391)"
  pEC50: 7.05

Kindly note the recorded pEC50 for CC(C)C[C@H](NC(=O)[C@H](CCCNC(=N)NC(=O)NCCCCN)NC(=O)[C@H](Cc1ccc(O)cc1)NC(=O)[C@H](CCCCN)NC(=O)CCC(=O)O)C(=O)N[C@@H](CCCNC(=N)N)C(=O)N[C@@H](Cc1ccc(O)cc1)C(N)=O (Suc-KYR([CO-NH(CH2)4NH2])LRY-NH2) , which is 6.53

----------
- ASSAY_NAME: Stability in human plasma assessed as half life at 37 degC by RP-HPLC analysis
- Assay type: ADME, cell-free
READOUT_NAME: half-life (h)

- QUERY_SMILES: "CC(C)C[C@H](NC(=O)[C@@H]1CCCNC(=N)NC(=O)NCCCCNC(=O)CCC(=O)N[C@@H](CCCNC(=N)N)C(=O)N[C@@H](Cc2ccc(O)cc2)C(=O)N1)C(=O)N[C@@H](CCCNC(=N)N)C(=O)N[C@@H](Cc1ccc(O)cc1)C(N)=O"
  READOUT_NAME: "half-life"
  UNITS_OF_MEASURE: "h"
  OBSERVED_MEASUREMENT: 1.9
- QUERY_SMILES: "CC(C)C[C@H](NC(=O)[C@@H]1CCCNC(=N)NC(=O)NCCCCNC(=O)CCC(=O)N[C@@H](CCCNC(=N)N)C(=O)N[C@@H](Cc2c[nH]c3ccccc23)C(=O)N1)C(=O)N[C@@H](CCCNC(=N)N)C(=O)N[C@@H](Cc1ccc(O)cc1)C(N)=O"
  READOUT_NAME: "half-life"
  UNITS_OF_MEASURE: "h"
  OBSERVED_MEASUREMENT: 2.6
